system_name: T1, human Galectin-3 (Gal3), full-length recombinant (human, UniProt P17931 2-250)
T1 construct: treated here as one molecule; also called hGAL3; hGal3
assay_name: blocking ELISA, Gal3 coated, EGFR-Fc, antibody 20 µg/ml
measured_quantity: % blocking of Gal3-EGFR binding

Task: Item mTB001 (antibody, mouse IgG2a, V domains shown, also called mIMT001; murine IMT001) VH: QIQLVQSGPELKKPGETVKISCKASGYTFTNYGMNWVKQAPGKGLKWMGWINTNTGEPTYVEEFKGRFAFSLETSASTAYLQINNLKNEDTATYFCAPYDNFFAYWGQGTLVTVSA VL: DIVITQDELSNPVTSGESVSISCRSSKSLLYKDGKTYLNWFLQRPGQSPQLLIYLMSTHASGVSDRFSGSGSGTDFTLEISRVKAEDVGVYYCQQLVDYPLTFGAGTKLELKR : provide % blocking of Gal3-EGFR binding
Output: > 70%

Task: Could you please provide reported % blocking of Gal3-EGFR binding for 24D12.2H9 (antibody, human IgG4 S228P, kappa, V domains shown) VH: QVQLKQSGPGLVQPSQSLSITCTVSGFSLTSYGVHWVRQAPGKGLEWLGVIWSGGSTDYNAAFMSRLSISKDNSKSQVFFKMNSLQADDTAIYYCAKSPDGYDVAWFGYWGQGTLVTVSA VL: DIVMTQSHKFMSTSVGDRVSITCKASQDVRTAVAWYQQKPGQSPKLLIYWASTRHTGVPDRFTGSGSGTDFTLTLSNVQSEDLADYFCQQYSSYPWTFGGGTKLEIKR ? Thanks!
Output: < 30%

Task: For the binder 6H6.2D6 (antibody, human IgG4 S228P, kappa, V domains shown) VH: QIQLVQSGPELKKPGETVKISCKASGYTFTTYGMSWVKQAPGKGLKWMAWINTYSGVPTYADDFKGRFAFSLETSASTAYLQINNLTNEDTATYFCARGPYAMDYWGQGTSVTVSS VL: DIQMTQTTSSLSASLGDRVTISCSASQGISNYLNWYQQKPDGTVKLLIYYTSSLHSGVPSRFSGSGSGTDYSLTISNLEPEDIATYYCQQYSELPYTFGSGTKLEIKR , report % blocking of Gal3-EGFR binding.
Output: > 70%

Task: Given 13G4.2F8 (antibody, human IgG4 S228P, kappa, V domains shown) VH: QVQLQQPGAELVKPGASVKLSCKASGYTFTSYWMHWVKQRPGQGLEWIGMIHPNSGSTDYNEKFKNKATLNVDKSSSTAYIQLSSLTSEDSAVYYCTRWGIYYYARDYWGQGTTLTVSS VL: DIVMTQSQKFMSTSVGERVSITCKASQNVGTNVAWYQQKAGQSLELLIYGASNRHTGVPDRFTGSGSGTDFTLTITNVQSEDMTNYFCEQYSNFPLTFGAGTKLELKR , respond with its % blocking of Gal3-EGFR binding.
Output: < 30%
